Tested on: K562
ASSAY NOTES: NCI tumour cell line growth inhibition, 48 h
Active and inactive are the calls of the source. Rule as the data show it: active = GI50 up to about 1.1 µM and inactive = higher.
A correct response names exactly one class from active, inactive

Reference set (3 entries):
>  <MOLECULE>
COC(=O)NC1C(C)OC(OC2C/C=C(/C)C3C=CC4C(OC5CC(OC6CCC(OC7CC(O)C(OC8CCC(O)C(C)O8)C(C)O7)C(C)O6)C(OC(C)=O)C(C)O5)C(C)CC(C)C4C3(C)/C(O)=C3/C(=O)OC4(CC(C=O)=CC(O)C4/C=C\2C)C3=O)CC1(C)[N+](=O)[O-] (stereo not given)

>  <GROUP LABEL>
active

$$$$
>  <MOLECULE>
COc1cc(C2c3cc4c(cc3OC(NCCc3ccccc3)C2C)OCO4)cc(OC)c1OC (stereo not given)

>  <GROUP LABEL>
active

$$$$
>  <MOLECULE>
Cc1ccc([N+](=O)[O-])cc1S(=O)(=O)Nc1ccc(C2=NN(c3ccc([N+](=O)[O-])cc3[N+](=O)[O-])C(c3cccs3)C2)cc1 (stereo not given)

>  <GROUP LABEL>
inactive

$$$$

-- ask Please share the test call associated with `Nc1c(/N=N/c2ccc(-c3ccc(/N=N/c4c(O)ccc5cc(S(=O)(=O)O)cc(S(=O)(=O)O)c45)cc3)cc2)c(S(=O)(=O)O)cc2cc(S(=O)(=O)O)c(/N=N/c3ccccc3)c(O)c12` .
-- reply inactive

-- ask Please share the test call associated with `Cc1ccc(NC(=O)C(=O)C2C(=O)NC(=O)NC2=O)cc1C` .
-- reply inactive

====

Test system: PC-3
ASSAY NOTES: NCI tumour cell line growth inhibition, 48 h
Activity calls are given as the source filed them. No stated cut-off is given here; in the data, active = GI50 up to about 1.1 µM and inactive = higher.
A correct response names exactly one class from 1 (yes) for active, 0 (no) for inactive

Reference set (10 entries):
>  <MOLECULE>
O=C1C2=Cc3ccccc3OC2(O)Oc2ccccc21 (stereo not drawn)

>  <GROUP LABEL>
0 (no)

$$$$
>  <MOLECULE>
CCC1(OC(=O)CNC)C(=O)OCc2c1cc1n(c2=O)Cc2cc3ccccc3nc2-1 (stereo not drawn)

>  <GROUP LABEL>
1 (yes)

$$$$
>  <MOLECULE>
CC(C)(C)C#CI1OC(=O)c2ccccc21

>  <GROUP LABEL>
0 (no)

$$$$
>  <MOLECULE>
C/C(=N\NC(=N)N)C(CN(C)C)C(c1ccccc1)c1c(O)c2ccccc2oc1=O (stereo not drawn)

>  <GROUP LABEL>
0 (no)

$$$$
>  <MOLECULE>
BrCC[N+]12CCCN1CCC2

>  <GROUP LABEL>
0 (no)

$$$$
>  <MOLECULE>
COc1c(C)c2nc3ccccc3nc2c2c(O)ccnc12

>  <GROUP LABEL>
0 (no)

$$$$
>  <MOLECULE>
Cc1[nH]n(C(=N)N)c(=O)c1CCO

>  <GROUP LABEL>
0 (no)

$$$$
>  <MOLECULE>
O=C(C(Cl)=C(N1CCCCC1)N1CCCCC1)C(Cl)Cl

>  <GROUP LABEL>
0 (no)

$$$$
>  <MOLECULE>
CS(C)(=O)=N/C=C\C(=O)C(Cl)(Cl)Cl

>  <GROUP LABEL>
0 (no)

$$$$
>  <MOLECULE>
N#Cc1ccnc(C(=O)N2CCCC2C(=O)O)c1 (stereo not drawn)

>  <GROUP LABEL>
0 (no)

$$$$

-- ask Please share the test call associated with `Cc1cc2c(cc1-c1cc3c(cc1C)C(C(C)C)=C(O)C(=O)/C3=C\Nc1c3ccccc3nc3ccccc13)/C(=C/Nc1c3ccccc3nc3ccccc13)C(=O)C(O)=C2C(C)C` .
-- reply 0 (no)

-- ask Please share the test call associated with `CCCCCCCC/C=C\CCCCCCC/C=C1/C[C@](/C=C/C(=O)OC)(CO)OC1=O` .
-- reply 0 (no)

-- ask Please share the test call associated with `CN(C)Cc1cc(C(=O)/C=C/c2cccc(Cl)c2)cc(CN(C)C)c1O` .
-- reply 0 (no)

-- ask Please share the test call associated with `CC(C)OP(=O)(OC(C)C)c1ccc2c(c1)OCCOCCOCCOCCO2` .
-- reply 0 (no)

-- ask Please share the test call associated with CC(=O)OCC(C)C1=C(O)C(=O)C2(C)C/C=C(/C)CC/C=C(\C)CCC(O)C(C)CCC12 (stereo not drawn) .
-- reply 0 (no)
